Entries and their pKd
# tested system: T1, PfCSP major repeat region peptide NPNA3, biotinylated (Plasmodium falciparum, also: biotin label, end not given here)
# T1 peptide: NPNANPNANPNA
# assay remarks: BLI
pKd: −log10 of the molar value. Ends that are not written are not given here.

binder: Fab MS-1805 (engineered AB007088) (Fab, V domains shown) VH: QVQLVESGGGVVQPGRSLRLSCAASGFTFNTYGMHWVRQAPGKGLEWVAIIWYDGSQKYYADSVQGRFTISRDNHKNTLYLQMNSLRAEDTAVYFCVRVRFSVGPHGSAFDLWGQGTMVTVSS VL: GVQMTQSPSTLSASVGDRVTLTCRASQSISSWLAWYQQKPGKAPKLLIYDASSLESGVPSRFSGSGSGTEFTLTISSLQPDDFATYYCQQYNSYSFWTFGQGTKVEIK
pKd: 7.60
//
binder: Fab 7088 (antigen-binding fragment of mAb AB007088) (Fab, V domains shown) VH: QVQLVESGGGVVQPGRSLRLSCAASGFAFNTYGMHWVRQTPGKGLEWVAIIWYDGSQKYYADSVQGRFIISRDNHKNTLSLQMNGLRAEDTAVYFCVRVRFSVGPHGSAFDLWGQGTMVIVSS VL: GVQMTQSPSTLSASVGDRVTLTCRASQSISSWLAWYQQKPGKAPKLLIYDASSLESGVPSRFSGSGSGTEFTLTISSLQPDDFATYYCQQYNSYSFWTFGQGTKVEIK
pKd: 7.82
//
binder: Fab MAM01 (engineered AB000224) (Fab, V domains shown, as the heavy chain of m1 (Fab 224, PDB 6WFY) with the stated framework changes (Kabat numbering); as the light chain of m1 (Fab 224, PDB 6WFY) with the stated changes (Kabat numbering); Fab only; the LS mutations of the Fc are not part of it; also called MS-1797; MAM01 Fab; source: ExpiCHO cells, purified (HiTrap Protein G HP, size exclusion chromatography)) VH: EVQLVESGGGLVQPGRSLRLSCTASGFSFGDHAMSWVRQAPGKGLEWVGFIRKTTYGATTHYAAAVRGRFTISRDDSKSTVYLQMNSLKAEDTAVYFCARVQLDYGPGYQYYGMDVWGQGTTVTVSS VL: QSVLTQPPSVSGAPGQRVTISCTGMNSNIGAGYDVYWYQQLPGTAPKLLIYGNSNRPSGVPDRFSGSRSGTSASLAITGLQAEDEADYYCQSYDTSLNGWAFGGGTKLTVL
pKd: 8.39
//
binder: Fab 224 (antigen-binding fragment of mAb AB000224) (Fab, V domains shown, Fab 224 heavy chain (IGHV3-49) is in PDB 6WFY (cited) and PDB 9NOB (apo, deposited here); Fab 224 light chain (IGLV1-40) is in PDB 6WFY (cited) and PDB 9NOB (apo, deposited here); IGHV3-49/IGLV1-40; the expression methods name only the Fab genes of MAM01, 7088 and MS-1805, not Fab 224) VH: EVQLVESGGGLVQPGRSLRLPCTASGFSFGDHAMSWVRQAPGKGLEWVGFIRKTTYGATTHYAAAVRGRFTISRDDSKSIVYLQMNSLKTEDTAVYFCTRVQLDYGPGYQYYGMDVWGQGTTVTVSS VL: ESVLTQPPSVSGAPGQRVTISCTGMNSNIGAGYDVYWYQQLPGRAPKLLIYGNSNRPSGVPDRFSGSRSGTSASLAITGLQAEDEADYYCQSYDTSLNGWAFGGGTKLTVL
pKd: 8.46
